# TGT: recombinant human GST-SYK (Homo sapiens, UniProt P43405)
# Construct: purchased Carna Biosciences 08-176
# METHOD SUMMARY: Homogeneous Time-Resolved Fluorescence (HTRF) assay for the recombinant human Syk enzyme
# Format: biochemical
# ASSAY SETUP: HTRF assay, recombinant human GST-SYK; IC50 given as class symbols; read-out: rhSYK Activity
Reported IC50 values for a set of compounds

Solved entries:
- COMPOUND: "Cc1cc(Nc2nccc(C(F)(F)F)n2)cc(-c2ccc(N3CCCC(C(=O)O)C3)nc2)c1 (stereo not shown)"
  IC50: "< 100 nM"
- COMPOUND: "Cc1cc(Nc2nccc(C(F)(F)F)n2)cc(-c2ccc(NCC(N)=O)nc2)c1"
  IC50: "< 100 nM"
- COMPOUND: "Cc1cc(Nc2nccc(C(F)(F)F)n2)cc(-c2ccc(N3CCN(S(C)(=O)=O)CC3)nc2)c1"
  IC50: "100 to 1000 nM"

// query IC50 value for entry Cc1cc(Nc2nccc(C)n2)cc(-c2ccc([C@]3(O)CC[C@@H](C(=O)O)CC3)nc2)c1 < 100 nM

###

# TGT: recombinant human GST-SYK (Homo sapiens, UniProt P43405)
# Construct: purchased Carna Biosciences 08-176
# METHOD SUMMARY: Homogeneous Time-Resolved Fluorescence (HTRF) assay for the recombinant human Syk enzyme
# Format: biochemical
# ASSAY SETUP: HTRF assay, recombinant human GST-SYK; IC50 given as class symbols; read-out: rhSYK Activity
pIC50: −log10 of the molar value.
Reported pIC50 values for a set of molecules

Solved entries:
- MOLECULE: "NC(=O)c1ccc(-c2cccc(Nc3nccc(C(F)(F)F)n3)c2)nc1 [Example 2.8]"
  MEASUREMENT KIND: "pIC50"
  RESULT: "6.00 to 7.00"
- MOLECULE: "Cc1cc(Nc2nccc(C(F)(F)F)n2)cc(-c2ccc(C(C)(O)CO)nc2)c1 (centres unmarked) [Example 9.56]"
  MEASUREMENT KIND: "pIC50"
  RESULT: "> 7.00"
- MOLECULE: "Cc1cc(Nc2nccc(C(F)(F)F)n2)cc(-c2ccc(N3CC[C@H](O)[C@H]3C(=O)O)nc2)c1 [Example 7.134]"
  MEASUREMENT KIND: "pIC50"
  RESULT: "> 7.00"
- MOLECULE: "Cc1cc(Nc2nccc(C(F)(F)F)n2)cc(-c2ccc(NCCC(=O)O)nc2)c1 [Example 7.88]"
  MEASUREMENT KIND: "pIC50"
  RESULT: "> 7.00"
- MOLECULE: "Cc1cc(Nc2nccc(C(F)(F)F)n2)cc(-c2ccc(NCC(=O)O)nc2)c1 [Example 7.87]"
  MEASUREMENT KIND: "pIC50"
  RESULT: "> 7.00"
- MOLECULE: "Cc1cc(Nc2nccc(C(F)(F)F)n2)cc(-c2ccc(OC3CCOCC3)nc2)c1 [Example 2.61]"
  MEASUREMENT KIND: "pIC50"
  RESULT: "6.00 to 7.00"
- MOLECULE: "Cc1cc(Nc2nccc(C(F)(F)F)n2)cc(-c2ccc(NC(CO)C(=O)O)nc2)c1 (centres unmarked) [Example 7.69]"
  MEASUREMENT KIND: "pIC50"
  RESULT: "> 7.00"
- MOLECULE: "Cc1cc(Nc2nccc(C(F)(F)F)n2)cc(-c2ccc(C(=O)N3C[C@H](O)C[C@H]3C)nc2)c1 [Example 16.41]"
  MEASUREMENT KIND: "pIC50"
  RESULT: "> 7.00"
- MOLECULE: "Cc1cc(Nc2nccc(C(F)(F)F)n2)cc(-c2ccnc(NC3(CO)CC3)c2)c1 [Example 15.56]"
  MEASUREMENT KIND: "pIC50"
  RESULT: "> 7.00"
- MOLECULE: "Cc1cc(Nc2nccc(C(F)(F)F)n2)cc(-c2ccc(N[C@@H]3CCC(=O)NC3)nc2)c1 [Example 7.51]"
  MEASUREMENT KIND: "pIC50"
  RESULT: "> 7.00"

// query pIC50 value for entry Cc1cc(Nc2nccc(C(F)(F)F)n2)cc(-c2ccc(NC(=O)CC(=O)O)nc2)c1 [Example 8.4] > 7.00

###

# TGT: recombinant human GST-SYK (Homo sapiens)
# Construct: purchased Carna Biosciences 08-176
# METHOD SUMMARY: Homogeneous Time-Resolved Fluorescence (HTRF) assay for the recombinant human Syk enzyme
# Type: biochemical
# ASSAY SETUP: HTRF assay, recombinant human GST-SYK; IC50 given as class symbols; read-out: rhSYK Activity
MEASUREMENT KIND: IC50

- COMPOUND: "Cc1cc(Nc2nccc(C(F)(F)F)n2)cc(-c2ccc(CC(=O)N(C)C)nc2)c1 [Example 3.2]"
  IC50: "< 100 nM"
- COMPOUND: "Cc1cc(Nc2nccc(C(F)(F)F)n2)cc(-c2ccc(N3CCCC(F)(F)C3)nc2)c1 [Example 7.53]"
  IC50: "100 to 1000 nM"
- COMPOUND: "Cn1cc(-c2cccc(Nc3nccc(C(F)(F)F)n3)c2)ccc1=O [Example 5.1]"
  IC50: "100 to 1000 nM"
- COMPOUND: "Cc1cc(Nc2nccc(C(F)(F)F)n2)cc(-c2ccc(N3CCC[C@H]3C(N)=O)nc2)c1 [Example 7.57]"
  IC50: "< 100 nM"
- COMPOUND: "CNC(=O)C1CCCN1c1cc(-c2cc(C)cc(Nc3nccc(C(F)(F)F)n3)c2)ccn1 (racemic) [Example 15.81]"
  IC50: "100 to 1000 nM"

// query IC50 value for entry Cc1cc(Nc2nccc(C(F)(F)F)n2)cc(-c2ccnc(N3CCNC(=O)C3)c2)c1 [Example 15.44] < 100 nM

// query IC50 value for entry Cc1cc(Nc2nccc(C(F)(F)F)n2)cc(-c2ccc(N3CCCC4(CCCCO4)C3)nc2)c1 (stereo not shown) [Example 7.116] 100 to 1000 nM

// query IC50 value for entry Cc1cc(Nc2nccc(C(F)(F)F)n2)cc(-c2ccc(NCCC(N)=O)nc2)c1 [Example 7.43] < 100 nM

// query IC50 value for entry Cc1cc(Nc2nccc(C)n2)cc(-c2ccc(CCC(=O)O)cn2)c1 [Example 2.34] 100 to 1000 nM

// query IC50 value for entry CC(=O)NCCN(C)c1ccc(-c2cc(C)cc(Nc3nccc(C(F)(F)F)n3)c2)cn1 [Example 7.50] < 100 nM

// query IC50 value for entry Cc1cc(Nc2nccc(C(F)(F)F)n2)cc(-c2ccc(N[C@H](C(=O)O)C(C)C)nc2)c1 [Example 7.91] < 100 nM

// query IC50 value for entry Cc1cc(Nc2nccc(C(F)(F)F)n2)cc(-c2ccc(C(=O)NC(C3CC3)C3CC3)nc2)c1 [Example 16.46] 100 to 1000 nM

// query IC50 value for entry Cc1cc(Nc2nccc(C(F)(F)F)n2)cc(-c2ccc(NCCc3cnccn3)nc2)c1 [Example 7.18] < 100 nM

// query IC50 value for entry CCOC(=O)C1(C)CCC(O)(c2ccc(-c3cc(C)cc(Nc4nccc(C(F)(F)F)n4)c3)cn2)CC1 (stereo not shown) [Example 9.44] 100 to 1000 nM

// query IC50 value for entry Cc1cc(Nc2nccc(C(F)(F)F)n2)cc(-c2ccc(N[C@@H](CO)C(=O)O)nc2)c1 [Example 7.109] < 100 nM

// query IC50 value for entry CCCN1CCCN(c2ccc(-c3cc(C)cc(Nc4nccc(C(F)(F)F)n4)c3)cn2)CC1 [Example 7.60] 100 to 1000 nM

###

Reported pIC50 values for a set of molecules
# TGT: recombinant human GST-SYK (Homo sapiens)
# Construct: purchased Carna Biosciences 08-176
# METHOD SUMMARY: Homogeneous Time-Resolved Fluorescence (HTRF) assay for the recombinant human Syk enzyme
# Assay type: biochemical
# ASSAY SETUP: HTRF assay, recombinant human GST-SYK; IC50 given as class symbols; read-out: rhSYK Activity
pIC50: −log10 of the molar value.

Solved entries:
- MOLECULE: "CC(=O)c1cncc(-c2cc(C)cc(Nc3nccc(C(F)(F)F)n3)c2)c1"
  pIC50: "> 7.00"
- MOLECULE: "Cc1cc(Nc2nccc(C(F)(F)F)n2)cc(-c2ccc(C(=O)N3CCCC34CCNC4=O)nc2)c1 (stereo not shown)"
  pIC50: "> 7.00"
- MOLECULE: "Cc1cc(Nc2nccc(C(F)(F)F)n2)cc(-c2ccnc(NCC(C)O)c2)c1 (stereo not shown)"
  pIC50: "> 7.00"
- MOLECULE: "Cc1cc(Nc2nccc(C(F)(F)F)n2)cc(-c2ccc(N[C@H](CC(N)=O)C(=O)O)nc2)c1"
  pIC50: "> 7.00"
- MOLECULE: "CCOC(=O)C1CCC(O)(c2ccc(-c3cc(C)cc(Nc4nccc(C)n4)c3)cn2)CC1(C)C (stereo not shown)"
  pIC50: "6.00 to 7.00"

// query pIC50 value for entry CNC(=O)Nc1cc(Nc2nccc(C(F)(F)F)n2)cc(-c2cccnc2)c1 > 7.00

// query pIC50 value for entry COc1nc(Nc2cc(C)cc(-c3ccc(N[C@H]4CC[C@H](C(=O)O)CC4)nc3)c2)ncc1F > 7.00

From: patent US9376418B2
